The origin of these recorded values is the RNAGym collection of RNA variant scans (doi:10.1073/pnas.2313332121).

polymerase ribozyme fitness (log ratio): recorded values
B1: TPR t1 (parent)
chain: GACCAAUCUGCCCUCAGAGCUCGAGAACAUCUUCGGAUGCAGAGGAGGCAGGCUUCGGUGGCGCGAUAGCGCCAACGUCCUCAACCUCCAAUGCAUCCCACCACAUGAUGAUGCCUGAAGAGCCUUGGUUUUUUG

# Variants of: B1
# methodSummary: polymerase ribozyme fitness, log enrichment relative to wild type (log ratio); higher = more active; in vitro selection for triplet polymerase activity
Write the value as a bare number.

>>> df
                     variant  observedmeasurement
0       A29G A37G C88U A111C               -0.788
1        G44A A50C G63A C85A                -4.52
2       A18G C70A A91C G113A                 -2.9
3  U9G C53U G61C C124G U131A                 1.49
4           C64U U116G G117C                -2.86
5            G44U A84U A118G                -2.17
6           A74G U112G U116A                -1.07
7        U30C G61C C72U A95U                   -4
8            C13A G35A C124G                -3.52
9                  G61U C89A                 -1.5

Query block: Which polymerase ribozyme fitness (log ratio) reading was recorded for the variant G60A A100C C104U C123A ?
Result block: -0.726

Query block: Which polymerase ribozyme fitness (log ratio) reading was recorded for the variant G17U G61C ?
Result block: -3.76

Query block: Which polymerase ribozyme fitness (log ratio) reading was recorded for the variant C8U G93U C102U G120C ?
Result block: -1.01

Query block: Which polymerase ribozyme fitness (log ratio) reading was recorded for the variant C22G C34U G60U C94A C97U C98G G113U ?
Result block: -6.85
